Read-out: Monocyte Chemoattractant Protein-1 (MCP1), CCL2 (gene 6347)
Test: BSK_IMphg_MCP1: BioMAP Diversity Plus: IMphg Assay for Monocyte Chemoattractant Protein-1 (MCP1) Biomarker Activity (AID 2284253)
Conditions: primary human endothelial cells with macrophages
Activity calls are given as the source filed them. How the source made its calls: active means hit-call score of the fitted dose curve at least 0.9, where 1 is the maximum; inactive means score below 0.9.
I would appreciate it if you answered using one of these outcomes: true for active, false for inactive

Challenge: Would you mind telling me which call this test gave `C=C(C)C(=O)OCCC(F)(F)C(F)(F)C(F)(F)C(F)(F)C(F)(C(F)(F)F)C(F)(F)F` ?
Response given: false

Challenge: Also `CCCCCCCCC(F)(F)C(F)(F)C(F)(F)C(F)(F)C(F)(F)C(F)(F)F` ?
Response given: false

Challenge: Also `O=C(O)C(F)(F)C(F)(F)C(F)(F)C(F)(F)C(F)(F)C(F)(F)C(F)(F)C(F)(F)Cl` ?
Response given: true

Challenge: Also `Cc1ccc(S(=O)(=O)OCC(F)(F)C(F)(F)C(F)(F)C(F)(F)C(F)(F)C(F)F)cc1` ?
Response given: false

Challenge: Also `O=C(O)C(F)(F)C(F)(F)C(F)(F)C(F)(F)F` ?
Response given: false

Challenge: Also O=C(O)C(F)(OC(F)(F)C(F)(OC(F)(F)C(F)(F)C(F)(F)F)C(F)(F)F)C(F)(F)F (centres undefined) ?
Response given: false

Challenge: Also `FC(F)(F)C(F)(F)C(F)(F)C(F)(F)C(F)(F)C(F)(F)C(F)(F)Br` ?
Response given: false

Challenge: Also `OCCCC(F)(F)C(F)(F)C(F)(F)F` ?
Response given: false

Challenge: Also `OCC(F)(F)C(F)(F)C(F)(F)C(F)(F)C(F)(F)C(F)F` ?
Response given: false

Challenge: Also O=C(O)C(F)(OC(F)(F)C(F)(OC(F)(F)C(F)(OC(F)(F)C(F)(F)C(F)(F)F)C(F)(F)F)C(F)(F)F)C(F)(F)F (centres undefined) ?
Response given: false

Challenge: Also `O=C(O)C(F)(F)C(F)(F)F` ?
Response given: false

Challenge: Also `FC(F)(F)C(F)(F)C(F)(F)C(F)(F)C(F)(F)C(F)(F)C(F)(F)C(F)(F)CCS` ?
Response given: false

Challenge: Also `NC(=O)C(F)(F)C(F)(F)C(F)(F)C(F)(F)F` ?
Response given: false

Challenge: Also `O=S(=O)(OCCOC(F)(F)F)C(F)(F)F` ?
Response given: false

* * *

Read-out: Plasminogen activator inhibitor-1 (PAI1), SERPINE1 (gene 5054)
Assay: BSK_hDFCGF_PAI1: BioMAP Diversity Plus: hDFCGF Assay for Plasminogen activator inhibitor-1 (PAI1) Biomarker Activity (AID 2283066)
Settings: primary human foreskin fibroblasts; actives raise or lower the signal
Description: BSK_hDFCGF is a cell-based, multiplexed-readout assay that uses foreskin fibroblast, a human skin primary cell, with measurements taken at 24 hours after chemical dosing in a 96-well plate.BSK_hDFCGF_PAI1 is an assay component measured in the BSK_hDFCGF assay. It measures PAI-1 antibody related to regulation of gene expression using ELISA technology.Data from the assay component BSK_hDFCGF_PAI1 was analyzed into 1 assay endpoint. […]
Calls of active or inactive are those of the source. Rule for the calls: active = hit-call score of the fitted dose curve at least 0.9, where 1 is the maximum; inactive = score below 0.9.
I would appreciate it if you answered using one of these outcomes: active, inactive

Challenge: Would you mind telling me which call this test gave `CC(=O)Nc1ccc(N=Nc2cc(C)ccc2O)cc1` ?
Response given: inactive

Challenge: Also `FC(F)(F)C(F)(F)C(F)(F)C(F)(F)C(F)(F)C(F)(F)C(F)(F)C(F)(F)F` ?
Response given: inactive

Challenge: Also `O[Si](c1ccccc1)(c1ccccc1)c1ccccc1` ?
Response given: active

Challenge: Also `FC(F)(F)C(F)(F)C(F)(F)C(F)(F)CCI` ?
Response given: inactive

Challenge: Also `CCCCCCCCCCCCCCCC[N+](C)(C)Cc1ccccc1` ?
Response given: active

Challenge: Also `O=C(O)C(F)(F)C(F)(F)C(F)(F)C(F)(F)C(F)(F)C(F)(F)C(F)(F)C(F)(F)C(F)(F)C(F)(F)C(F)(F)C(F)(F)C(F)(F)F` ?
Response given: inactive

Challenge: Also `C#C[C@]1(O)CC[C@H]2[C@@H]3CCc4cc(OC)ccc4[C@H]3CC[C@@]21C` ?
Response given: active

* * *

Assay: BSK_3C_VCAM1: BioMAP Diversity Plus: 3C Assay for Vascular cell adhesion molecule 1 (VCAM1) Biomarker Activity (AID 2282999)
Details: BioMAP 3C HUVEC, VCAM1 ELISA, cytokine-stimulated; actives raise or lower the signal
Active and inactive are the calls of the source. How the source made its calls: active means hit-call score of the fitted dose curve at least 0.9, where 1 is the maximum; inactive means score below 0.9.
quantity kind: AC50

# annotated cases, reported AC50 shown
record smiles | AC50
CCCCCCCOC(=O)c1ccccc1C(=O)OCCCCCCC | inactive
FC(F)(F)C(F)(F)C(F)(F)C(F)(F)C(F)(F)CCI | inactive
CCCCCCCCCCCCCCCC[N+](C)(C)Cc1ccccc1 | 8.49 µM (active)
FC(F)(F)C(F)(F)C(F)(F)C(F)(F)C(F)(F)C(F)(F)C(F)(F)C(F)(F)CCS | inactive

Challenge: // lookup AC50 for `OCC(F)(F)C(F)(F)C(F)(F)C(F)(F)C(F)(F)C(F)(F)F`
Response given: inactive

* * *

Read-out: Tumor necrosis factor (Homo sapiens)
Experiment: BSK_LPS_TNFa: BioMAP Diversity Plus: LPS Assay for Tumour Necrosis Factor alpha (TNFa) Biomarker Activity (AID 2283085)
Settings: primary human HUVEC with PBMC; actives raise or lower the signal
Activity calls are given as the source filed them. Rule for the calls: active = hit-call score of the fitted dose curve at least 0.9, where 1 is the maximum; inactive = score below 0.9.
I would appreciate it if you answered using one of these outcomes: y (active), n (inactive)

Challenge: Would you mind telling me which call this test gave `OCCCC(F)(F)C(F)(F)C(F)(F)F` ?
Response given: n

Challenge: Also `C=C(C)C(=O)OCC(F)(F)C(F)(F)C(F)(F)F` ?
Response given: n

Challenge: Also `FC(F)(I)C(F)(F)C(F)(F)C(F)(F)I` ?
Response given: n

Challenge: Also `Oc1ccc(Nc2ccccc2)cc1` ?
Response given: n

Challenge: Also `O=C(O)C(F)(F)C(F)(F)C(F)(F)C(F)(F)F` ?
Response given: n

Challenge: Also `O=C(O)C(F)(F)C(F)(F)C(F)(F)C(F)(F)C(F)(F)C(F)(F)C(F)(F)C(F)(F)C(F)(F)C(F)(F)C(F)(F)C(F)(F)F` ?
Response given: n

Challenge: Also `FC(F)(F)C(F)(F)C(F)(F)C(F)(F)C(F)(F)C(F)(F)C(F)(F)C(F)(F)CCS` ?
Response given: n

Challenge: Also `FC(F)(F)C(F)(F)C(F)(F)C(F)(F)C(F)(F)C(F)(F)C(F)(F)Br` ?
Response given: n

Challenge: Also `O=C(O)C(F)(F)C(F)(F)C(F)(F)C(F)(F)C(F)(F)C(F)(F)C(F)(F)C(F)(F)Cl` ?
Response given: n

Challenge: Also CCCCCCC(C)OC(=O)CCCCC(=O)OC(C)CCCCCC (centres undefined) ?
Response given: y

Challenge: Also `CCCCCCCCC(F)(F)C(F)(F)C(F)(F)C(F)(F)C(F)(F)C(F)(F)F` ?
Response given: n

Challenge: Also `COC(=O)CCC(F)(F)C(F)(F)C(F)(F)C(F)(F)F` ?
Response given: n

Challenge: Also `O=P(O)(O)OCCC(F)(F)C(F)(F)C(F)(F)C(F)(F)C(F)(F)C(F)(F)F` ?
Response given: n

Challenge: Also `OCC(F)(F)C(F)(F)C(F)(F)C(F)F` ?
Response given: n

* * *

Read-out: CD40, CD40 (gene 958)
Assay: BSK_SAg_CD40: BioMAP Diversity Plus: SAg Assay for CD40 Biomarker Activity (AID 2283088)
Details: primary human HUVEC with PBMC; actives raise or lower the signal
Activity calls are given as the source filed them. The calls were made as follows: active = hit-call score of the fitted dose curve at least 0.9, where 1 is the maximum; inactive = score below 0.9.
I would appreciate it if you answered using one of these outcomes: class 1 = active, class 0 = inactive

Challenge: Would you mind telling me which call this test gave `O[Si](c1ccccc1)(c1ccccc1)c1ccccc1` ?
Response given: class 1

Challenge: Also `C=CC(=O)OCC(F)(F)C(F)(F)C(F)(F)C(F)(F)C(F)(F)C(F)(F)C(F)(F)F` ?
Response given: class 0

Challenge: Also `OCC(F)(F)C(F)(F)C(F)(F)F` ?
Response given: class 0

Challenge: Also `CCCCCCCCCCCCCCCC[N+](C)(C)Cc1ccccc1` ?
Response given: class 1

Challenge: Also `CCO[Si](CCC(F)(F)C(F)(F)C(F)(F)C(F)(F)C(F)(F)C(F)(F)F)(OCC)OCC` ?
Response given: class 0

* * *

Assay: Tanguay_ZF_120hpf_TCHR: Oregon State University Tanguay Lab 120 Hour Post-fertilization zebrafish Assay for Touch Responsive (AID 2284403)
Method: Tanguay_ZF_120hpf is a whole embryo, multiplexed endpoint assay using zebrafish larvae exposed for 120 hours post fertilization on a 96-well plate.Tanguay_ZF_120hpf_TCHR is one of one assay component(s) measured or calculated from the Tanguay_ZF_120hpf assay. It is designed to make measurements of zebrafish development as detected with brightfield microscopy of developing zebrafish embryos.Data from the assay component Tanguay_ZF_120hpf_TCHR was analyzed into 1 assay endpoints. […]
Activity calls are given as the source filed them. How the source made its calls: active means hit-call score of the fitted dose curve at least 0.9, where 1 is the maximum; inactive means score below 0.9.
I would appreciate it if you answered using one of these outcomes: active, inactive

Challenge: Would you mind telling me which call this test gave `OCCCC(F)(F)C(F)(F)C(F)(F)C(F)(F)C(F)(F)C(F)(F)C(F)(F)F` ?
Response given: inactive

Challenge: Also `Cc1ccc(S(=O)(=O)OCC(F)(F)C(F)(F)C(F)(F)C(F)(F)C(F)(F)C(F)F)cc1` ?
Response given: inactive

Challenge: Also `FC(F)(F)C(F)(F)CNCC(F)(F)C(F)(F)F` ?
Response given: inactive

Challenge: Also `OCC(F)(F)C(F)(F)C(F)(F)C(F)(F)C(F)(F)C(F)(F)F` ?
Response given: inactive

Challenge: Also `O=C(CC(=O)C(F)(F)C(F)(F)F)C(F)(F)F` ?
Response given: inactive

Challenge: Also `FC(F)(F)C(F)(F)C(F)(F)N(C(F)(F)C(F)(F)C(F)(F)F)C(F)(F)C(F)(F)C(F)(F)F` ?
Response given: inactive

Challenge: Also `FC(F)(F)C(F)(F)C(F)(F)C(F)(F)C(F)(F)C(F)(F)C(F)(F)C(F)(F)F` ?
Response given: inactive

Challenge: Also `C=CC(F)(F)C(F)(F)C(F)(F)C(F)(F)C(F)(F)C(F)(F)C(F)(F)C(F)(F)C=C` ?
Response given: inactive

Challenge: Also `FC(F)(F)C(F)(F)C(F)(F)C(F)(F)CCI` ?
Response given: inactive

Challenge: Also `C=C(C)C(=O)OCC(F)(F)C(F)(F)C(F)(F)F` ?
Response given: inactive

Challenge: Also O=C(O)C(F)(OC(F)(F)C(F)(OC(F)(F)C(F)(F)C(F)(F)F)C(F)(F)F)C(F)(F)F (centres undefined) ?
Response given: inactive

Challenge: Also `O=C(O)C(F)(F)C(F)(F)C(F)(F)C(F)(F)C(F)(F)C(F)(F)C(F)(F)C(F)(F)C(F)(F)C(F)(F)C(F)(F)C(F)(F)C(F)(F)F` ?
Response given: inactive

Challenge: Also `N=C(N)C(F)(F)C(F)(F)C(F)(F)C(F)(F)C(F)(F)C(F)(F)C(F)(F)F` ?
Response given: inactive

Challenge: Also `O=S(=O)(O)C(F)(F)C(F)(F)C(F)(F)C(F)(F)C(F)(F)C(F)(F)C(F)(F)F` ?
Response given: active

Challenge: Also O=C(O)C(F)(OC(F)(F)C(F)(OC(F)(F)C(F)(OC(F)(F)C(F)(F)C(F)(F)F)C(F)(F)F)C(F)(F)F)C(F)(F)F (centres undefined) ?
Response given: inactive

Challenge: Also `FC(F)(F)C(F)(F)C(F)(F)C(F)(F)C(F)(F)C(F)(F)C(F)(F)I` ?
Response given: inactive

Challenge: Also `FC(F)(F)C(F)(F)C(F)(F)CI` ?
Response given: inactive

Challenge: Also `OCC(F)(F)C(F)(F)C(F)(F)C(F)F` ?
Response given: inactive

Challenge: Also `O=C(O)C(F)(F)C(F)(F)C(F)(F)C(F)(F)C(F)(F)C(F)(F)C(F)(F)C(F)(F)C(F)(F)C(F)F` ?
Response given: inactive
